The following compounds are shown together with reported Ki values.
target: GHSR1a receptor (Homo sapiens, UniProt Q92847); construct: expressed in transfected cells; host or cells: HEK293 (membranes); assay: 125I-Ghrelin binding assay; details: displacement of 125I-ghrelin (0.053 nM), membranes of HEK293 cells transfected with GHSR1a; Cheng-Prussoff; '—' not defined; read-out: Binding pKi (converted)
Sequence (Q92847 whole entry): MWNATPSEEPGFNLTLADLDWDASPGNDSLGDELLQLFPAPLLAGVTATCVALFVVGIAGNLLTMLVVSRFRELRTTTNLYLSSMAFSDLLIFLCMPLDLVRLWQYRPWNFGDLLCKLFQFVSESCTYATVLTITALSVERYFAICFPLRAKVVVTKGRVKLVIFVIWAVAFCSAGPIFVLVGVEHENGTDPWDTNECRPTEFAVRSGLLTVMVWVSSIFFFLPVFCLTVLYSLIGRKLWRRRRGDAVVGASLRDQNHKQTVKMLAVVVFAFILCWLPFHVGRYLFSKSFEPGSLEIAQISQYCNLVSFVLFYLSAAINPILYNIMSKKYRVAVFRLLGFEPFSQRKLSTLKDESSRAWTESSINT
Record the value in µM, omitting the unit from your answer.

Use these answered entries as a reference point.
>  <COMPOUND>
COc1cccc2c(C(=O)c3ccccc3)cn(CCCN3CCC(Oc4ccccc4Cl)CC3)c12

>  <OBSERVABLE>
Ki

>  <RECORDED VALUE>
0.158

$$$$
>  <COMPOUND>
CC(=O)c1c(C)n(CCCN2C3CCC2CC(Oc2ccccc2Cl)C3)c2c(Br)cccc12 (centres unmarked)

>  <OBSERVABLE>
Ki

>  <RECORDED VALUE>
0.1

$$$$
>  <COMPOUND>
COc1cccc2c(C(=O)NCc3cccc(C)c3)cn(CCCN3C4CCC3CC(Oc3ccccc3Cl)C4)c12 (centres unmarked)

>  <OBSERVABLE>
Ki

>  <RECORDED VALUE>
0.02

$$$$
>  <COMPOUND>
COc1cccc2c(C(C)=O)cn(CC(C)CN3CCCN(Cc4ccccc4Cl)CC3)c12 (centres unmarked)

>  <OBSERVABLE>
Ki

>  <RECORDED VALUE>
0.1

$$$$
>  <COMPOUND>
CC(=O)c1cn(CCCN2CCCN(Cc3ccccc3Cl)CC2)c2c(Br)cccc12

>  <OBSERVABLE>
Ki

>  <RECORDED VALUE>
0.01

$$$$
>  <COMPOUND>
CC(=O)c1cn(CCCN2CCC(Oc3cccc(Cl)c3)CC2)c2ncccc12

>  <OBSERVABLE>
Ki

>  <RECORDED VALUE>
0.316

$$$$
>  <COMPOUND>
CC(=O)c1cn(CCCN2CCC(Oc3ccccc3Cl)CC2)c2c(C)cccc12

>  <OBSERVABLE>
Ki

>  <RECORDED VALUE>
0.631

$$$$
>  <COMPOUND>
CCCCC[C@H]1C[C@H]2CC[C@@H](C1)N2CCCn1cc(C(C)=O)c2cccc(OC)c21

>  <OBSERVABLE>
Ki

>  <RECORDED VALUE>
0.316

$$$$
>  <COMPOUND>
CC(=O)c1cn(CCCN2CCC(Oc3ccccc3Cl)CC2)c2ccccc12 [drawing 599]

>  <OBSERVABLE>
Ki

>  <RECORDED VALUE>
2.51

$$$$
>  <COMPOUND>
COc1cccc2c(C(=O)Cc3ccccc3)cn(CCCN3CCCC(Cc4ccccc4Cl)C3)c12 (centres unmarked)

>  <OBSERVABLE>
Ki

>  <RECORDED VALUE>
0.126

$$$$

Query block: Reported Ki for COc1ccccc1C1CCN(CCCn2cc(C(=O)c3ccccc3)c3cccc(OC)c32)CC1 : what is it?
Result block: 0.158

Query block: Reported Ki for COC(=O)c1cn(CCCN2CCC(Oc3ccc(F)cc3)CC2)c2ccccc12 : what is it?
Result block: 3.16

Query block: Reported Ki for CC(=O)c1cn(CCCN2CCC(Oc3ccc(Cl)cc3)CC2)c2c(Br)cccc12 : what is it?
Result block: 0.1

Query block: Reported Ki for COc1cccc2c(C(C)=O)cn(CCCN3CCCN(Cc4ccc(F)cc4)CC3)c12 : what is it?
Result block: 0.0158
